# target_under_test: T1, human IL-33 (R&D Systems, #3625-IL-010/CF) (human, UniProt O95760 112-270)
# T1 construct: Commercial recombinant protein; also called hIL-33; interleukin-33
# T1 sequence (looked up): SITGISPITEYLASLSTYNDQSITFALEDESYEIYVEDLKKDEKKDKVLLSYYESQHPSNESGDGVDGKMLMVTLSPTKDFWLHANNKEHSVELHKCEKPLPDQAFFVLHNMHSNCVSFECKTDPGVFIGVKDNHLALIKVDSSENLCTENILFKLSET
# protocol_notes: SPR 37C pH7.4, mAb captured
property: t½ (min)
Numbers only, in min.

In the examples that follow, each entry is paired with its recorded t½.
>>> value_observed("H4H9666P (antibody, human IgG4, V domains shown, Human IgG4 Fc (H4H)) VH: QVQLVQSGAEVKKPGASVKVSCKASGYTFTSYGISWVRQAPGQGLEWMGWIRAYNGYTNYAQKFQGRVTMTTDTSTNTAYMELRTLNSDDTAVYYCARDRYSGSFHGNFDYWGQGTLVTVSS VL: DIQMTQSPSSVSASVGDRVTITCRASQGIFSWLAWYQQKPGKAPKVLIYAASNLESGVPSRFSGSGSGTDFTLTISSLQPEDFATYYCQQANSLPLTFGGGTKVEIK")
15
>>> value_observed("H4H9671P (antibody, human IgG4, V domains shown, Human IgG4 Fc (H4H)) VH: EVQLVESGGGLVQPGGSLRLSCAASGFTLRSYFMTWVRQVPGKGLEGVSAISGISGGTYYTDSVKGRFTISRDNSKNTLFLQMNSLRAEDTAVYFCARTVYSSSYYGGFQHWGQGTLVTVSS VL: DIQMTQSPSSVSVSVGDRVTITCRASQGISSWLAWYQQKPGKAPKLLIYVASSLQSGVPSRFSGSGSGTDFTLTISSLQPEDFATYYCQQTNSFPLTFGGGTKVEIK")
10
>>> value_observed("H1M9559N (antibody, mouse IgG1, V domains shown, Human variable domains, mouse IgG1 Fc (H1M)) VH: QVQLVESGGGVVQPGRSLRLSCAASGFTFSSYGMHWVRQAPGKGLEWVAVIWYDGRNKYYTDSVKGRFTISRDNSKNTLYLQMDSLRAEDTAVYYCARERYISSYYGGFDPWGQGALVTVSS VL: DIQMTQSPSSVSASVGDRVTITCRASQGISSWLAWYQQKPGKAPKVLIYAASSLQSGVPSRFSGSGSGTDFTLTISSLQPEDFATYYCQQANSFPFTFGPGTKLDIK")
12

Give t½ for all binders that follow.
1. H4H9662P (antibody, V domains shown, Human IgG4 Fc (H4H)) VH: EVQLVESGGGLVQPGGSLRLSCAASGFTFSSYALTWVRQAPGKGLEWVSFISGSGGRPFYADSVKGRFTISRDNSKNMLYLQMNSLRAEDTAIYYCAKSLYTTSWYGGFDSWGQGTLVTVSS VL: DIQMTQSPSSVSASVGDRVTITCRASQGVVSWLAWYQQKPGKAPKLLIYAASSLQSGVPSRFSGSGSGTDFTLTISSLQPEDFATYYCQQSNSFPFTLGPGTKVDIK
2. H4H9675P (antibody, human IgG4, V domains shown, Human IgG4 Fc (H4H)) VH: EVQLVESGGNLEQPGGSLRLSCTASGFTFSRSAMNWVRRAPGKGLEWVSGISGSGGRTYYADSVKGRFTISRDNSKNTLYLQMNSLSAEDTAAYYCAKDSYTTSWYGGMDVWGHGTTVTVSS VL: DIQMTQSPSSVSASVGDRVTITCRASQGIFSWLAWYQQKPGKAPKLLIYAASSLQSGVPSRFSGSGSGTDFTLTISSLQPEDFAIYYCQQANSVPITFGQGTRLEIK

Result:
[19, 13]

Give t½ for each of the items listed below.
1. H4H9663P (antibody, human IgG4, V domains shown, Human IgG4 Fc (H4H)) VH: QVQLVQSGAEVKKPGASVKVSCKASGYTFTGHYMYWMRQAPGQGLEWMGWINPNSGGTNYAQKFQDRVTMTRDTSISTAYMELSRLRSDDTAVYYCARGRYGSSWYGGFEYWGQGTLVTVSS VL: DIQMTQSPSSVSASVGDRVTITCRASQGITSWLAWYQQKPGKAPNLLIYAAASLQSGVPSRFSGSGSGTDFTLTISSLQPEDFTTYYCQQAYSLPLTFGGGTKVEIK
2. H1M9568N (antibody, mouse IgG1, V domains shown, Human variable domains, mouse IgG1 Fc (H1M)) VH: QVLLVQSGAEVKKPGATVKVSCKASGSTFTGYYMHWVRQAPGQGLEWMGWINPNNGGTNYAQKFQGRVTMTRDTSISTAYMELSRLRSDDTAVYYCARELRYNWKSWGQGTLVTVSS VL: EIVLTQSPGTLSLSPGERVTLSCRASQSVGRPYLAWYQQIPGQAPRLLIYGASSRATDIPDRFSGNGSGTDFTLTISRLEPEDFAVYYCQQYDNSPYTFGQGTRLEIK
3. H4H9660P (antibody, human IgG4, V domains shown, Human IgG4 Fc (H4H)) VH: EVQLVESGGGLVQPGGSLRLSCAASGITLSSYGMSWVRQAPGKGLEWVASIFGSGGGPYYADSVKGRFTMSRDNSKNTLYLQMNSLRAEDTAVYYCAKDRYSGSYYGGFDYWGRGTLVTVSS VL: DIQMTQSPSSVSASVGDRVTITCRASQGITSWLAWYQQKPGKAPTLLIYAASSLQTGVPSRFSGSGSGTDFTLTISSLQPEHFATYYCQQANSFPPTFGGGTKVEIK
4. H4H9665P (antibody, human IgG4, V domains shown, Human IgG4 Fc (H4H)) VH: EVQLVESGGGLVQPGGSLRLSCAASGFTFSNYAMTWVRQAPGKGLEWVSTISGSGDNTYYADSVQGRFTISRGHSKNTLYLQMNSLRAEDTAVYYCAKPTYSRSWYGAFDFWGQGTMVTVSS VL: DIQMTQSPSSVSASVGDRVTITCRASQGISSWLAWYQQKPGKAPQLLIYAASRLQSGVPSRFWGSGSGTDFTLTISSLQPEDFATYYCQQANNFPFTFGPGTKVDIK

Result:
[9, 12, 24, 8]

// for each binder below, give its t½
1. H4H9667P (antibody, human IgG4, V domains shown, Human IgG4 Fc (H4H)) VH: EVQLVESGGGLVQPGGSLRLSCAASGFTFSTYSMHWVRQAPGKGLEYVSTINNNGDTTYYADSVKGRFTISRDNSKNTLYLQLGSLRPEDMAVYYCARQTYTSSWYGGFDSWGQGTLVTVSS VL: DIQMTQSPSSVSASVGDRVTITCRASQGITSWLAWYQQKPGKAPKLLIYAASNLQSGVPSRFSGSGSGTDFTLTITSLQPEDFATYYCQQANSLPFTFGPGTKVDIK
2. H4H9629P (antibody, human IgG4, V domains shown, Human IgG4 Fc (H4H)) VH: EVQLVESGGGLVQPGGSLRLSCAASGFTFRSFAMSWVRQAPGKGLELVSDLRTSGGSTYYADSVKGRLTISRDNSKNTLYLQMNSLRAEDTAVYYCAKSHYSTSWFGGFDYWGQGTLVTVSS VL: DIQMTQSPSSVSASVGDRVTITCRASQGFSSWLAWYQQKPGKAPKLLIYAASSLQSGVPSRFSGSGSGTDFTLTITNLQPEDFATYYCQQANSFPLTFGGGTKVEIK

Result:
1: 19; 2: 18
